Hi there, I'd appreciate the recorded GI50 for every entry that follows.
System: CCRF-CEM
procedure_summary: NCI tumour cell line growth inhibition, 48 h
The source made the active and inactive calls. Cut-off read from the data, not from the text of the source: active = GI50 up to about 1.1 µM and inactive = higher.

Find the recorded GI50 belonging to COc1ccccc1N1C(=O)C2C3c4ccccc4C(OC(C)=O)(c4ccccc43)C2C1=O (stereo unspecified) and report it.
> 100 µM (inactive)

Find the recorded GI50 belonging to Cc1ccc2c(c1)NC(c1ccc(C(=O)O)cc1)c1cccn1-2 (stereo unspecified) and report it.
> 100 µM (inactive)

Find the recorded GI50 belonging to CCCC(=O)OCC1(CO)C/C(=C/CC(C(C)C)C(C)C)C(=O)O1 (stereo unspecified) and report it.
> 100 µM (inactive)

Find the recorded GI50 belonging to COc1cc(Br)cc2c1O[C@H]1C(=O)CC3CC21CCN3C (stereo partly specified) and report it.
4.09 µM (inactive)

Find the recorded GI50 belonging to Cc1ccc(Oc2cc(C)ccc2P(=O)(O)O)cc1 and report it.
> 100 µM (inactive)

Find the recorded GI50 belonging to COC(=O)c1cc2c(o1)Sc1ccccc1NC2=O and report it.
> 100 µM (inactive)

====

Tested on: SN12C
procedure_summary: NCI tumour cell line growth inhibition, 48 h
Calls of active or inactive are those of the source. Cut-off read from the data, not from the text of the source: active = GI50 up to about 1.1 µM and inactive = higher.
Choose the fitting class; nothing outside label 1 (active), label 0 (inactive) is accepted.

Hello, I am checking results. What call was entered for CC(C)NC1(C(N)=O)CCN(Cc2ccccc2)CC1 ?
label 0

Hello, I am checking results. What call was entered for COC(=O)C(Cc1nc2ccccc2nc1O)C(=O)C(=O)Nc1ccc([N+](=O)[O-])cc1[N+](=O)[O-] (stereo not given) ?
label 0

Hello, I am checking results. What call was entered for CCc1oc2ccc(OC)c3c2c1C=CC=C3 ?
label 0

Hello, I am checking results. What call was entered for Cc1ccc2nc(/C(=C/c3ccc(/C=C(\NC(=O)c4ccccc4)c4nc5ccc(C)cc5[nH]4)c(C)c3)NC(=O)c3ccccc3)[nH]c2c1 ?
label 0

Hello, I am checking results. What call was entered for N#C/C(=C\c1ccc(Cl)cc1)c1nc(-c2cc3ccccc3oc2=O)cs1 ?
label 0

Hello, I am checking results. What call was entered for COc1ccc2nc3cccc([N+](=O)[O-])c3c(NCCN(C)C)c2c1 ?
label 1

Hello, I am checking results. What call was entered for CC1(C)OC(C(C)(C)O)C(C(C)(C)O)O1 (stereo not given) ?
label 0

Hello, I am checking results. What call was entered for COc1ccc(C(=O)c2c(-c3ccccc3NC(=O)C(F)(F)F)[nH]c3ccccc23)cc1 ?
label 0

Hello, I am checking results. What call was entered for COc1cc(/C=C/c2ccnc3ccccc23)cc(OC)c1OC ?
label 0

Hello, I am checking results. What call was entered for C#CCC[C@@H]1O[C@@]1(C)CC/C=C(\C)CC/C=C/C=O ?
label 0

====

Test system: OVCAR-5
procedure_summary: NCI tumour cell line growth inhibition, 48 h
Activity calls are given as the source filed them. No stated cut-off is given here; in the data, active = GI50 up to about 1.1 µM and inactive = higher.
Choose the fitting class; nothing outside active, inactive is accepted.

Hello, I am checking results. What call was entered for COCOc1ccc(C(=O)Oc2cccc3c2OC(C)(C)O3)c(OCOC)c1 ?
inactive

Hello, I am checking results. What call was entered for COc1cc(/C=C2/C(=O)N(C(=O)c3ccccc3O)N=C2C)cc(OC)c1OC ?
inactive

Hello, I am checking results. What call was entered for C=CCNC(=O)N(CCCCC(NC(C)=O)C(=O)NCc1ccccc1)Cc1ccccc1 (centres undefined) ?
inactive

Hello, I am checking results. What call was entered for CC1=C2C(O)C(C(C)C(=O)NCC(C)C)CCC2(C)C=CC1=O (centres undefined) ?
inactive

Hello, I am checking results. What call was entered for CC(C)N(CCCNc1c2ccccc2nc2cccc([N+](=O)[O-])c12)C(C)C ?
active

Hello, I am checking results. What call was entered for CC(=O)OC1CCC2C3CCc4c(C)ccc(OS(=O)(=O)c5ccccc5)c4C3CCC12C (centres undefined) ?
inactive

Hello, I am checking results. What call was entered for CN1N=C(c2ccncc2)OC1c1ccccc1F (centres undefined) ?
inactive

Hello, I am checking results. What call was entered for Cc1ccc2nc(/C(=C/c3ccc(/C=C(\NC(=O)c4ccccc4)c4nc5ccc(C)cc5[nH]4)c(C)c3)NC(=O)c3ccccc3)[nH]c2c1 ?
inactive

Hello, I am checking results. What call was entered for COc1ccc(C(=O)c2c(-c3ccccc3NC(=O)C(F)(F)F)[nH]c3ccccc23)cc1 ?
inactive

====

Tested on: M19-MEL
procedure_summary: NCI tumour cell line growth inhibition, 48 h
Calls of active or inactive are those of the source. No stated cut-off is given here; in the data, active = GI50 up to about 1.1 µM and inactive = higher.
measured_attribute: GI50

Field: GI50 (M19-MEL). Entry: COc1ccc(NC(=O)C(C)Oc2ccc(OCC3CCCCC3)cc2)cc1 (stereo not given)
> 100 µM (inactive)

Field: GI50 (M19-MEL). Entry: O=C1C(Cl)N(c2ccc(Cl)cc2Cl)C1c1c[nH]c2ccccc12 (stereo not given)
> 100 µM (inactive)

Field: GI50 (M19-MEL). Entry: Cc1ccc(S(=O)(=O)N/N=C\c2c3ccccc3[n+]([O-])c3ccccc23)cc1
7.67 µM (inactive)

Field: GI50 (M19-MEL). Entry: NNC(=O)N/N=C1/C(=O)N(c2ccc(Cl)c(Cl)c2)C(=O)C(=O)C1c1nc2ccccc2o1 (stereo not given)
> 100 µM (inactive)

Field: GI50 (M19-MEL). Entry: N#CN1CCC=C(c2cc3ccccc3[nH]2)C1
243 µM (inactive)

Field: GI50 (M19-MEL). Entry: C=CCn1c2ccccc2c2c(C)c3cnccc3c(C)c21
9.23 µM (inactive)

Field: GI50 (M19-MEL). Entry: COc1cc2c(cc1OC)C1Cc3sccc3CN1CC2 (stereo not given)
> 100 µM (inactive)

Field: GI50 (M19-MEL). Entry: COc1cc(-c2ccc(/N=N/c3ccc4c(S(=O)(=O)O)cc(S(=O)(=O)O)c(N)c4c3O)c(OC)c2)ccc1/N=N/c1ccc2c(S(=O)(=O)O)cc(S(=O)(=O)O)c(N)c2c1O
> 100 µM (inactive)

Field: GI50 (M19-MEL). Entry: CCOC(=O)C(C)(C)Oc1ccc2c(=O)cc(-c3ccc(Cl)cc3)oc2c1
> 100 µM (inactive)

Field: GI50 (M19-MEL). Entry: CC1=C2C(O)C(C(C)C(=O)NCC(C)C)CCC2(C)C=CC1=O (stereo not given)
> 100 µM (inactive)

Field: GI50 (M19-MEL). Entry: O=[N+]([O-])c1ccc2nc3ccscc-3c2c1
20.1 µM (inactive)

Field: GI50 (M19-MEL). Entry: CCCCC(C(=O)C(=O)NC1C2CC3CC(C2)CC1C3)C(=O)C(C)C (stereo not given)
> 100 µM (inactive)

Field: GI50 (M19-MEL). Entry: CC1=C(c2cc(C(=O)Nc3cccc(C(F)(F)F)c3)ncn2)Sc2ccccc2N1
> 100 µM (inactive)

Field: GI50 (M19-MEL). Entry: Cc1cc(N(CCC#N)CCC#N)ccc1/N=N/c1ccc([N+](=O)[O-])cc1
> 100 µM (inactive)

Field: GI50 (M19-MEL). Entry: NC(=S)N/N=C(\CC1OC(=O)c2ccccc21)c1ccc(Cl)cc1 (stereo not given)
21.9 µM (inactive)

Field: GI50 (M19-MEL). Entry: CC(C)(C)C1(c2ccc(C3(c4ccccc4)Oc4ccccc4S3)[nH]2)Oc2ccccc2S1 (stereo not given)
> 100 µM (inactive)

Field: GI50 (M19-MEL). Entry: C=C(C)C(=O)OC1C/C(CO)=C\C(O)C/C(C)=C/C2OC(=O)C(=C)C21 (stereo not given)
25.6 µM (inactive)

Field: GI50 (M19-MEL). Entry: C=CC12CN(C)C3C4COC(CC41)C1(C(=O)Nc4ccccc41)C32 (stereo not given)
> 148 µM (inactive)

Field: GI50 (M19-MEL). Entry: COc1ccc(OC)c2[nH]c(Sc3c([N+](=O)[O-])ncn3C)nc12
20.6 µM (inactive)

Field: GI50 (M19-MEL). Entry: Cc1oc2c(C)c3oc(=O)cc(C)c3cc2c1CN1C(=O)C2OCCOCCOCCOCCOCCO[C@H]2C1=O (stereo not given in full)
> 100 µM (inactive)

Field: GI50 (M19-MEL). Entry: CN(C)c1ccc(O[Si](Oc2ccc(N(C)C)cc2)(Oc2ccc(N(C)C)cc2)Oc2ccc(N(C)C)cc2)cc1
> 100 µM (inactive)

Field: GI50 (M19-MEL). Entry: C#CCC[C@@H]1O[C@@]1(C)CC/C=C(\C)CC/C=C/C=O
24.2 µM (inactive)

Field: GI50 (M19-MEL). Entry: CC(Oc1ccc(Oc2cnc3ccc(Cl)cc3n2)cc1)C(=O)O (stereo not given)
> 100 µM (inactive)

Field: GI50 (M19-MEL). Entry: Cc1ccc(NC(=O)C(=O)C(C(=O)c2ccc3ccccc3c2)C2OC(=O)c3ccccc32)cc1C (stereo not given)
6.34 µM (inactive)

Field: GI50 (M19-MEL). Entry: COc1cccc(NC(=O)N/C(=C/c2ccc(N(CCC#N)CCC#N)cc2)NC(=O)c2cc([N+](=O)[O-])ccc2Cl)c1
> 100 µM (inactive)

Field: GI50 (M19-MEL). Entry: Cc1ccc(S(=O)(=O)C(C#N)c2nc3ccccc3nc2-n2ccnc2)cc1 (stereo not given)
> 100 µM (inactive)

Field: GI50 (M19-MEL). Entry: O=C(CO)CC(=O)C(=O)Nc1nc([N+](=O)[O-])cs1
> 100 µM (inactive)

Field: GI50 (M19-MEL). Entry: CCCCCCCCCCCCCCNCC(OC)OC
18.1 µM (inactive)

Field: GI50 (M19-MEL). Entry: CNS(=O)(=O)NNS(=O)(=O)c1ccc(C)cc1
> 100 µM (inactive)

Field: GI50 (M19-MEL). Entry: CCCc1nc(NC#N)nc(C(=O)NC23CC4CC(CC(C4)C2)C3)c1C
> 100 µM (inactive)
